System: CAL-12T
Test: relative viability (nuclei count vs DMSO), 5 days (fraction); higher = more cells survive
Details: first compound 0.253 µM
MEASURED_QUANTITY: relative viability

| COMPOUND | STUDY_SYSTEM | READING |
| --- | --- | --- |
| Oc1nc(-c2ccc(C(F)(F)F)cc2)nc2c1CSCC2 [XAV939] + O=C(c1cc(Cc2n[nH]c(=O)c3ccccc23)ccc1F)N1CCN(C(=O)C2CC2)CC1 [Olaparib] (partner 8 µM) | CAL-12T | 0.699 |
| C=C1C(=O)O[C@@H](CCCCCCCC)[C@@H]1C(=O)O [C-75] + CC(C)C[C@H](NC(=O)[C@H](Cc1ccccc1)NC(=O)c1cnccn1)B(O)O [Bortezomib] (partner 0.002 µM) | CAL-12T | 0.967 |
| Oc1nc(-c2ccc(C(F)(F)F)cc2)nc2c1CSCC2 [XAV939] + N=C(N)NC(=N)NCCc1ccccc1 [Phenformin] (partner 250 µM) | CAL-12T | 0.507 |
| Oc1nc(-c2ccc(C(F)(F)F)cc2)nc2c1CSCC2 [XAV939] + CC(C)C[C@H](NC(=O)[C@H](Cc1ccccc1)NC(=O)c1cnccn1)B(O)O [Bortezomib] (partner 0.002 µM) | CAL-12T | 0.856 |
| C=C1C(=O)O[C@@H](CCCCCCCC)[C@@H]1C(=O)O [C-75] + C[C@]1(O)C[C@@H](c2nc(-c3ccc4ccc(-c5ccccc5)nc4c3)c3c(N)nccn32)C1 [Linsitinib] (partner 1 µM) | CAL-12T | 1.02 |

###

Tested on: NCI-H1755
Experiment: relative viability (nuclei count vs DMSO), 5 days (fraction); higher = more cells survive
Conditions: first compound 0.4 µM
In this section we review reported relative viability values for a set of compounds.
MEASURED_QUANTITY: relative viability

| COMPOUND | READING |
| --- | --- |
| O=C(O)c1ccc(-c2c[nH]c3ncc(-c4ccccc4)cc23)cc1C1CCCC1 + O=C(CCCCCCC(=O)Nc1ccccc1)NO [Vorinostat] (partner 1 µM) | 0.797 |
| O=C(O)c1ccc(-c2c[nH]c3ncc(-c4ccccc4)cc23)cc1C1CCCC1 + O=C(c1cc(Cc2n[nH]c(=O)c3ccccc23)ccc1F)N1CCN(C(=O)C2CC2)CC1 [Olaparib] (partner 8 µM) | 0.885 |
| O=C(O)c1ccc(-c2c[nH]c3ncc(-c4ccccc4)cc23)cc1C1CCCC1 + N=C(N)NC(=N)NCCc1ccccc1 [Phenformin] (partner 250 µM) | 0.64 |

###

Tested on: NCI-H1734
Assay: relative viability (nuclei count vs DMSO), 5 days (fraction); higher = more cells survive
Conditions: first compound 0.04 µM
# key: entry, value: relative viability
MEASURED_QUANTITY: relative viability

| MOLECULE | READING |
| --- | --- |
| O=C(O)c1ccc(-c2c[nH]c3ncc(-c4ccccc4)cc23)cc1C1CCCC1 + O=C(CCCCCCC(=O)Nc1ccccc1)NO [Vorinostat] (partner 1 µM) | 0.866 |
| O=C(O)c1ccc(-c2c[nH]c3ncc(-c4ccccc4)cc23)cc1C1CCCC1 + O=C(c1cc(Cc2n[nH]c(=O)c3ccccc23)ccc1F)N1CCN(C(=O)C2CC2)CC1 [Olaparib] (partner 8 µM) | 0.562 |
| O=C(O)c1ccc(-c2c[nH]c3ncc(-c4ccccc4)cc23)cc1C1CCCC1 + CS(=O)(=O)N1CCN(Cc2cc3nc(-c4cccc5[nH]ncc45)nc(N4CCOCC4)c3s2)CC1 [Pictilisib] (partner 1 µM) | 0.429 |
| O=C(O)c1ccc(-c2c[nH]c3ncc(-c4ccccc4)cc23)cc1C1CCCC1 + CC1(C)CCC(c2ccc(Cl)cc2)=C(CN2CCN(c3ccc(C(=O)NS(=O)(=O)c4ccc(N[C@H](CCN5CCOCC5)CSc5ccccc5)c(S(=O)(=O)C(F)(F)F)c4)cc3)CC2)C1 [Navitoclax] (partner 0.5 µM) | 0.706 |
| O=C(O)c1ccc(-c2c[nH]c3ncc(-c4ccccc4)cc23)cc1C1CCCC1 + COc1cccc2cc(-c3nc([C@H]4CC[C@H](C(=O)O)CC4)n4ncnc(N)c34)[nH]c12 [OSI-027] (partner 0.5 µM) | 0.621 |
| O=C(O)c1ccc(-c2c[nH]c3ncc(-c4ccccc4)cc23)cc1C1CCCC1 + CC(=O)c1c(C)c2cnc(Nc3ccc(N4CCNCC4)cn3)nc2n(C2CCCC2)c1=O [Palbociclib] (partner 0.5 µM) | 0.324 |
